Data origin: ChEMBL document CHEMBL1126501

- Test system: Human alphaherpesvirus 1
- method.notes: In vitro antiviral activity was evaluated against HSV-1 using viral plaque reduction assay; Value ranges from 0.7-2
- Assay type: functional, organism-based
pIC50: −log10 of the molar value.
observed.property: pIC50

[[record]]
compound = "Nc1nc(O)c2ncn([C@@H]3C(F)[C@H](CO)C3CO)c2n1 (mixture of isomers; form 1)"
meas_value = 6.15

